assay: Secretion counterscreen for inhibitors of the SERCaMP assay screened against the NCATS CANVASS Library (AID 1347390); conditions: SH-SY5Y constitutive GLuc secretion, luminescence, 20 h; series mostly up to 76.6 µM;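 also: light from luciferase secreted into medium read as a measure of general secretion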
Records with an inconclusive call do not appear. The source made the active and inactive calls. Calls follow the shape of the dose curve; as a rule, active = well fitted inhibition curve with a large enough effect; inconclusive = small, poorly fitted or top-dose-only effect; inactive = no such curve, though single readings can be large or run the other way.
Outcome (select one): active, inactive

// below: answered molecules
{"columns": ["molecule", "groupLabel"],
 "data": [
  ["C=C[C@]12C=CCN3CC[C@@]4(c5ccccc5NC(=O)[C@@H]4C1)[C@@H]32", "inactive"],
  ["C[C@]12CCC3[C@@H](CC[C@@H]4C[C@@H](O)CC[C@]34CO)[C@@]1(O)CC[C@@H]2C1=CC(=O)OC1 (some centres not stated)", "active"],
  ["C/C=C(\\C)C(=O)O[C@@H]1[C@@H](O)[C@@H]2O[C@H]3[C@H](O[C@@H](CCCCC)CCCCCCC(=O)CCC(=O)OC[C@@H](O2)[C@H]1OC(=O)/C=C/c1ccccc1)O[C@H](C)[C@H](OC(C)=O)[C@@H]3O", "active"],
  ["c1ccc2nc3c(cc2c1)[nH]c1ccccc13", "inactive"],
  ["C/C=C/[C@@H]1[C@H]2C[C@@H](C)CC[C@@H]2C(C)=C[C@H]1C(=O)c1c(O)c(-c2ccc(O)cc2)c[nH]c1=O", "inactive"]
]}

// param item: "C=CC(C)(C)[C@@]12C[C@H]3C(=O)N/C(=C/c4cnc[nH]4)C(=O)N3[C@@H]1Nc1ccccc12" ; yields the recorded call inactive

// param item: "CCC(=O)N[C@@H](C[C@H](C)C(Cl)(Cl)Cl)C(=O)N1C(=O)C=C(OC)[C@@H]1C[C@H](C)C(Cl)Cl" ; yields the recorded call inactive

====

test: Cellular Toxicity (caspase-3) N2a (AID 665); conditions: N2a cells, luminescence, normalized: DMSO 0%, 10 µM staurosporine 100%; at 92.2 µM (top of the series);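 also: compound exposure lasted 16 h at 37 °C before readout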
The source made the active and inactive calls. Calls come from the whole dose curve; as a rule, active = well fitted activation curve with a large enough effect; inconclusive = small, poorly fitted or top-dose-only effect; inactive = flat fitted curve, though single readings scatter.
Outcome (select one): yes (1) for active, no (0) for inactive

// below: answered compounds
{"columns": ["compound", "groupLabel"],
 "data": [
  ["C=CC1CC=CCC1 (stereo not drawn)", "no (0)"],
  ["CC(C)(OO)c1ccccc1", "no (0)"],
  ["CCCCOC(=O)c1ccccc1C(=O)OCCCC", "no (0)"],
  ["C=CCOC(C)=O", "no (0)"],
  ["Cc1cccc([N+](=O)[O-])c1", "no (0)"],
  ["OCC(Br)CBr (stereo not drawn)", "no (0)"],
  ["Cc1ccc(O)c(C)c1", "no (0)"],
  ["O=NN(c1ccccc1)c1ccccc1", "no (0)"],
  ["COC(=O)NC(=S)Nc1ccccc1NC(=S)NC(=O)OC", "no (0)"],
  ["CCCCCCCCCc1ccc(O)cc1", "yes (1)"]
]}

// param item: "Clc1cc(Cl)c(-c2cc(Cl)c(Cl)cc2Cl)cc1Cl" ; yields the recorded call no (0)

// param item: "S=C=Nc1cccc2ccccc12" ; yields the recorded call no (0)

// param item: "O=C(Cl)/C=C/C(=O)Cl" ; yields the recorded call no (0)

// param item: "C[N+](C)(C)Cc1ccccc1" ; yields the recorded call no (0)

// param item: "O=NN(CCO)CCO" ; yields the recorded call no (0)

// param item: "COP(=S)(OC)Oc1ccc([N+](=O)[O-])cc1" ; yields the recorded call no (0)

// param item: "COc1ccc(C=O)cc1OC" ; yields the recorded call no (0)

// param item: "CCCCOCCOP(=O)(OCCOCCCC)OCCOCCCC" ; yields the recorded call no (0)

====

Test system: CP325
Assay: qHTS profiling for inhibitors of Plasmodium falciparum proliferation (AID 504749);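 also: 0% = DMSO vehicle and full inhibition = artemisinin control; nearly all actives have a fitted effect of over 60% in size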
Settings: P. falciparum in erythrocytes, SYBR Green DNA, 72 h; series mostly up to 28.7 µM
Protocol: NIH National Institute of Allergy and Infectious Diseases [NIAID] NIH Chemical Genomics Center [NCGC] […] Because mature erythrocytes lack DNA, only Plasmodium-derived DNA is detected. NCGC Assay Protocol Summary: The SYBR Green viability assay was adapted from a method described previously (Plouffe et al., 2008). […] The following morning, fluorescence intensity at 485(14) nm excitation and 535(25) nm emission wavelengths was measured on an EnVision (Perkin Elmer) plate reader. […]
Inconclusive results are not listed. Activity calls are given as the source filed them. Calls come from the whole dose curve; as a rule, active = well fitted inhibition curve with a large enough effect; inconclusive = small, poorly fitted or top-dose-only effect; inactive = flat fitted curve, though single readings scatter.
Outcome (select one): active, inactive

// param item: "O=c1ccc2cc(O[C@H]3O[C@@H](CO)[C@@H](O)[C@@H](O)[C@@H]3O)c(O)cc2o1" ; yields the recorded call inactive

// param item: CCCC[N+]1(C)C2CC(OC(=O)C(CO)c3ccccc3)CC1C1OC12 (configuration not stated) ; yields the recorded call inactive

// param item: CNC(C)[C@@H](O)c1ccc(O)cc1 (some centres not stated) ; yields the recorded call inactive

// param item: C[N+]1([O-])[C@@H]2CC(OC(=O)[C@@H](CO)c3ccccc3)C[C@@H]1[C@H]1O[C@H]12 (some centres not stated) ; yields the recorded call inactive

// param item: "CC(C)N(CC[C@@](C(N)=O)(c1ccccc1)c1ccccn1)C(C)C" ; yields the recorded call inactive

// param item: "CCNC[C@H](O)c1cccc(O)c1" ; yields the recorded call inactive

// param item: CC(=O)OC1C[C@H](O[C@@H]2C(O)C[C@H](O[C@@H]3C(O)C[C@@H](OC4CC[C@]5(C)C(CCC6C5CC(O)[C@@]5(C)C(C7=CC(=O)OC7)CC[C@@]65O)C4)OC3C)OC2C)O[C@H](C)[C@H]1O[C@H]1OC(CO)C(O)C(O)C1O (some centres not stated) ; yields the recorded call inactive

====

Experiment: MultiTox-Fluor Cytotoxicity Assay - LYMP1-003 - Dead Cells (AID 961);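 also: cells exposed to compound for 16 h at 37 °C; 0% = DMSO and 100% = tetraoctylammonium bromide; nearly all actives have a fitted effect of over 70% in size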
Conditions: LYMP1-003 lymphoblastoid cells, dead-cell protease fluorescence; series mostly up to 92.2 µM
Text: NIH Chemical Genomics Center [NCGC] NIH Molecular Libraries Screening Centers Network [MLSCN] National Institutes of Environmental Health Sciences [NIEHS] National Toxicology Program [NTP] We have developed a 1536-well cell-based assay for quantitative high throughput screening (qHTS) against a number of cell lines to determine in vitro cytotoxicity of small molecules. […] 8. Detection; dead-cell fluorescence (Ex/Em=485/520); EnVision plate reader […]
The source made the active and inactive calls. The call rests on the fitted dose curve; in most records, active means well fitted cell-killing curve with a large enough effect; inconclusive means small, poorly fitted or top-dose-only effect, or effect the other way; inactive means flat fitted curve, though single readings scatter.
assayReadout: outcome

{"columns": ["molecule", "measValue"],
 "data": [
  ["CC(Cl)Cl", "inactive"],
  ["Cc1ccc2ccccc2c1", "inactive"],
  ["COC1=CC(=O)O[C@@H](/C=C/c2ccc3c(c2)OCO3)C1", "inactive"],
  ["CCOc1ccc(N)cc1", "inactive"],
  ["Cc1ccc([N+](=O)[O-])cc1C", "inactive"],
  ["CCC[CH2][Sn]([Cl])([Cl])[Cl]", "inactive"],
  ["Brc1ccc(Oc2cc(Br)c(Br)cc2Br)c(Br)c1", "inactive"]
]}

Look at this molecule and give its reported outcome. C=CC1CC=CCC1 (stereo not drawn) inactive

====

assay: Primary qHTS for inhibitors of MERS-S pseudo-typed particle cell entry (AID 1479149); conditions: MERS-S pseudotyped particle entry, luciferase; series mostly up to 57.1 µM; also: nearly all actives have a fitted effect of over 60% in size
Inconclusive results are not listed. Active and inactive are the calls of the source. Calls come from the whole dose curve.
Outcome (select one): 1 (yes) (active), 0 (no) (inactive)

// below: answered molecules
{"columns": ["molecule", "groupLabel"],
 "data": [
  ["CC[C@@]1([C@@H]2O[C@@H]([C@H]3O[C@@](O)(CO)[C@H](C)C[C@@H]3C)C[C@@H]2C)CC[C@H]([C@]2(C)CCC3(C[C@H](O)[C@@H](C)[C@@H]([C@@H](C)[C@@H](OC)[C@H](C)C(=O)O)O3)O2)O1 (some centres undefined)", "1 (yes)"],
  ["CC(C)CN(C[C@@H](O)[C@H](Cc1ccccc1)NC(=O)O[C@H]1CCOC1)S(=O)(=O)c1ccc(N)cc1", "0 (no)"],
  ["CN1CCN(C2=Nc3ccccc3Cc3ccccc32)CC1", "0 (no)"],
  ["CCN(CC)C(=O)[C@]1(c2ccccc2)C[C@H]1CN", "0 (no)"]
]}

// param item: "[Mn].[O]=[Mn][OH].[O]=[Mn][OH]" ; yields the recorded call 0 (no)

// param item: CN(CC(O)CO)C(=O)c1c(I)c(NC(=O)C(CO)CO)c(I)c(C(=O)N(C)CC(O)CO)c1I (centres undefined) ; yields the recorded call 0 (no)

// param item: "COc1ccc(NC(=O)c2ccc(C(=N)N(C)C)cc2)c(C(=O)Nc2ccc(Cl)cn2)c1" ; yields the recorded call 0 (no)

// param item: Cc1oc(-c2ccccc2)nc1CCOc1ccc(CC2C(=O)NOC2=O)cc1 (centres undefined) ; yields the recorded call 0 (no)

// param item: CC(C)(C)NCC(O)c1ccc(O)c(CO)n1 (centres undefined) ; yields the recorded call 0 (no)
